Reference source: ChEMBL document CHEMBL5223104

target: Sodium channel protein type 1 subunit alpha (Homo sapiens) (UniProt P35498); experiment: Modulator activity at human Nav1.1 expressed in human Flp-In-T-REx-293 cells assessed as change in half activation potential at 100 uM measured at holding potential of -120 mV by whole cell patch clamp electrophysiology assay; format: cell-based
measured.attribute: delta(V1/2) (mV)

(a) COC(=O)CCCNC(=O)c1nnn(Cc2c(F)cccc2F)c1/N=N/N(C)C
(b) CN(C)/N=N/c1c(C(N)=O)nnn1Cc1ccc(F)cc1F
Lookup: Two entries are listed, a and b . Which one carries the higher delta(V1/2)? Select an item and report its label.
Found: a
(a: -1.56 mV, b: -4.15 mV)

(a) CN(C)/N=N/c1c(C(=O)Nc2ccccc2)nnn1Cc1c(F)cccc1F
(b) CN(C)/N=N/c1c(C(=O)NC2CC2)nnn1Cc1c(F)cccc1F
Lookup: Field: lower delta(V1/2) | Options: a / b Select an item and report its label.
Found: b

(A) CN(C)/N=N/c1c(C(N)=O)nnn1Cc1c(F)cccc1F
(B) CN(C)/N=N/c1c(C(N)=O)nnn1CCc1c(F)cccc1F
Lookup: Field: lower delta(V1/2) | Options: A / B Select an item and report its label.
Found: B
